Assay: AUC (0 to 24 hrs) in human epithelial lining fluid at 25th AUC percentile curve
Type: ADME, tissue-based
Set-up: time < 24 hr
quantity: AUC(0-t) at 24 h (ng·h/mL)
Could you give me the number in ng·h/mL? Just the number is fine.

If you can, please state the reported AUC(0-t) at 24 h value of CN(C)c1cc(NC(=O)CNC(C)(C)C)c(O)c2c1C[C@H]1C[C@H]3[C@H](N(C)C)C(O)=C(C(N)=O)C(=O)[C@@]3(O)C(O)=C1C2=O [TIGECYCLINE] . 5190

----------
Test: AUC (0 to 24 hrs) in human epithelial lining fluid at 95th AUC percentile curve
Format: ADME, tissue-based
Parameters: time < 24 hr
quantity: AUC(0-t) at 24 h (ng·h/mL)
Could you give me the number in ng·h/mL? Just the number is fine.

If you can, please state the reported AUC(0-t) at 24 h value of CN(C)c1cc(NC(=O)CNC(C)(C)C)c(O)c2c1C[C@H]1C[C@H]3[C@H](N(C)C)C(O)=C(C(N)=O)C(=O)[C@@]3(O)C(O)=C1C2=O . 32400

----------
Experiment: Volume of distribution in human lung
Assay type: ADME, organism-based
quantity: Vd (L)
Could you give me the number in L? Just the number is fine.

If you can, please state the reported Vd value of CN(C)c1cc(NC(=O)CNC(C)(C)C)c(O)c2c1C[C@H]1C[C@H]3[C@H](N(C)C)C(O)=C(C(N)=O)C(=O)[C@@]3(O)C(O)=C1C2=O [TIGECYCLINE] . 35.2

----------
Experiment: AUC (0 to 24 hrs) in human colon wall tissue at 25th AUC percentile curve
Type: ADME, tissue-based
Design: time < 24 hr
quantity: AUC(0-t) at 24 h (ng·h/mL)
Could you give me the number in ng·h/mL? Just the number is fine.

If you can, please state the reported AUC(0-t) at 24 h value of CN(C)c1cc(NC(=O)CNC(C)(C)C)c(O)c2c1C[C@H]1C[C@H]3[C@H](N(C)C)C(O)=C(C(N)=O)C(=O)[C@@]3(O)C(O)=C1C2=O [TIGECYCLINE] . 6440

----------
Experiment: Protein binding in human serum
Type: ADME, cell-free
Settings: read-out: PB (converted)
quantity: fraction unbound
// response body must contain only the number

If you can, please state the reported fraction unbound value of CN(C)c1cc(NC(=O)CNC(C)(C)C)c(O)c2c1C[C@H]1C[C@H]3[C@H](N(C)C)C(O)=C(C(N)=O)C(=O)[C@@]3(O)C(O)=C1C2=O . 0.29

----------
Test: Penetration ratio, ratio of AUC (0 to 24 hrs) for human epithelial lining fluid to AUC (0 to 24 hrs) for human serum at 75th AUC percentile curve
Assay type: ADME, tissue-based
quantity: Kp
// response body must contain only the number

If you can, please state the reported Kp value of CN(C)c1cc(NC(=O)CNC(C)(C)C)c(O)c2c1C[C@H]1C[C@H]3[C@H](N(C)C)C(O)=C(C(N)=O)C(=O)[C@@]3(O)C(O)=C1C2=O . 2.45

----------
Test: Penetration ratio, ratio of AUC (0 to 24 hrs) for human epithelial lining fluid to AUC (0 to 24 hrs) for human serum at 25th AUC percentile curve
Type: ADME, tissue-based
quantity: Kp
// response body must contain only the number

If you can, please state the reported Kp value of CN(C)c1cc(NC(=O)CNC(C)(C)C)c(O)c2c1C[C@H]1C[C@H]3[C@H](N(C)C)C(O)=C(C(N)=O)C(=O)[C@@]3(O)C(O)=C1C2=O [TIGECYCLINE] . 0.823
